Tested on: CCRIS mutagenicity, Ames/micronucleus/aberration tests
Assay: CCRIS mutagenicity studies
Settings: Test System: AMES SALMONELLA TYPHIMURIUM; Strain/Indicator: TA98(NR); Metabolic Activation: NONE; Method: PREINCUBATION
The source made the active and inactive calls. No rule for the calls is given here.
The reply should be one of these categories: true (1) for active, false (0) for inactive

Challenge: // outcome(item) with item = Nc1ncnc2c1ncn2-c1cccc([N+](=O)[O-])c1
Response given: false (0)

Challenge: So what was the verdict on O=[N+]([O-])c1ccc2c(c1)Oc1ccc([N+](=O)[O-])cc1O2 in this test?
Response given: false (0)

Challenge: Name the outcome recorded for O=[N+]([O-])c1cccc2oc3ccccc3c12 in the assay.
Response given: false (0)

Challenge: Kindly provide the recorded test outcome for the following molecule: O=[N+]([O-])c1ccc2c(c1)oc1ccccc12
Response given: true (1)

Challenge: Assay result, entry Cn1c([N+](=O)[O-])nc2ncc(-c3ccccc3)cc21 — outcome?
Response given: true (1)

Challenge: Please indicate how the test categorized Nc1ccc(Nc2ccc([N+](=O)[O-])cc2)cc1 .
Response given: false (0)
